# assay_info: Volume of distribution at steady state in mouse at 2.5 mg/kg, iv after 24 hrs
# Format: ADME, organism-based
# condition_notes: in vivo, read-out: Vdss
property_measured: Vd (L/kg)

> print(dat)
                                smiles.repr  reported.value
1  Cc1ccc(-n2nc(C)c3ccc(-c4ccc([C@H]5C[C@@H]5C(=O)O)cc4)cc32)cc1             1.2

(A) COc1nn(-c2ccccn2)c2cc(-c3ccc([C@H]4C[C@@H]4C(=O)O)cc3)ccc12
(B) COc1nn(-c2ccc(C)cc2)c2cc(-c3ccc([C@H]4C[C@@H]4C(=O)O)cc3)cc(F)c12
(C) COc1nn(-c2ccccn2)c2cc(-c3ccc([C@H]4C[C@@H]4C(=O)O)cc3)cc(F)c12
Request: Sort entries by Vd from minimum to maximum value. Please list the labels according to the requested order.
Response: B, C, A
(B: 0.7 L/kg, C: 1 L/kg, A: 1.5 L/kg)

---

# assay_info: Ratio of unbound drug level in wild-type mouse brain to blood at 100 mg/kg administered through oral gavage 30 mins prior to glucose challenge measured after 90 mins
# condition_notes: brain
property_measured: Kp uu at 1.5 h
Reply with just the number.

Request: Identify measured Kp uu at 1.5 h corresponding to Cc1ccc(-n2nc(C)c3ccc(-c4ccc([C@H]5C[C@@H]5C(=O)O)cc4)cc32)cc1
Response: 0.27

---

# assay_info: Cmax in mouse at 5 mg/kg administered through oral gavage after 24 hrs
# Type: ADME, organism-based
# Parameters: dose 5 mg/kg, route oral
# condition_notes: in vivo
property_measured: Cmax (µM)

Recorded results for 3 compounds are shown here.
> print(dat)
                                smiles.repr  unit.of.measure  reported.value
1  Cc1ccc(-n2nc(C)c3cnc(-c4ccc([C@H]5C[C@@H]5C(=O)O)cc4F)cc32)nc1               µM             3.3
2  Cc1ccc(-n2nc(C)c3ccc(-c4ccc([C@H]5C[C@@H]5C(=O)O)cc4)cc32)cc1               µM             7.9
3  COc1nn(-c2ccc(C)cc2)c2cc(-c3ccc([C@H]4C[C@@H]4C(=O)O)cc3)cc(F)c12               µM               5

(a) COc1nn(-c2ccccn2)c2cc(-c3ccc([C@H]4C[C@@H]4C(=O)O)cc3)ccc12
(b) COc1nn(-c2ccccn2)c2cc(-c3ccc([C@H]4C[C@@H]4C(=O)O)cc3)cc(F)c12
Request: Please indicate which item has the smaller measured Cmax: a versus b Write the label of whichever entry you select.
Response: a

---

# target_under_test: Free fatty acid receptor 4 (Homo sapiens)
# Sequence (whole entry): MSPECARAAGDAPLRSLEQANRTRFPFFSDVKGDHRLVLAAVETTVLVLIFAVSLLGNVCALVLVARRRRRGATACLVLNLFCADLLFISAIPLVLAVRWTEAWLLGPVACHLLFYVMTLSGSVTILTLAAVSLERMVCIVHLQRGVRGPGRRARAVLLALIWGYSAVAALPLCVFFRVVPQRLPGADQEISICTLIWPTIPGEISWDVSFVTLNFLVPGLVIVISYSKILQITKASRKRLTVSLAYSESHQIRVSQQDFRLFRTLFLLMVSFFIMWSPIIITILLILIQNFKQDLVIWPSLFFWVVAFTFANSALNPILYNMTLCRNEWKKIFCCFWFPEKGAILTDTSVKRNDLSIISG
# assay_info: Agonist activity at human GPR120 expressed in CHO-FlpIn cells after 15 mins by DMR assay relative to control
# Assay type: cell-based
property_measured: Efficacy (%)

> print(dat)
                                   molecule  reported.value
1  N#Cc1cc(-c2ccc(CCC(=O)O)cc2)cc2c1cnn2-c1ccccn1              78

(A) O=C(O)CCc1ccc(-c2cc(F)c3cnn(-c4ccccn4)c3c2)cc1
(B) Cc1nn(-c2ccccn2)c2cc(-c3ccc(C(C)CC(=O)O)cc3)ncc12 (stereo not given)
Request: Param pair: A , B . Output: the one whose Efficacy is numerically greater. Write the label of whichever entry you select.
Response: A
(A: 100%, B: 28%)
